system: NSC Lung
This section presents compounds with their documented GI50 values.
Reply numerically in µM, unit not repeated.

Examples from the recorded data:
| compound | reported |
| --- | --- |
| CCOC(=O)C1CC2=C(C(=O)c3c(c(O)c4ccccc4c3OC)C2=O)C(O[C@H]2C[C@H](NC(=O)C(F)(F)F)[C@H](O)[C@H](C)O2)O1 (mixture of isomers) | 13.5 |
| CCOC(=O)[C@@H]1CC2=C(C(=O)c3c(cc4ccccc4c3O)C2=O)[C@@H](O[C@H]2C[C@H](NC(=O)C(F)(F)F)[C@H](O)[C@H](C)O2)O1 | 1.74 |
| CCOC(=O)[C@@H]1CC2=C(C(=O)c3c(cc4ccccc4c3OC(C)=O)C2=O)[C@@H](O)O1 (relative stereo) | 1.12 |
| CCOC(=O)C1CC2=C(CO1)C(=O)c1cc3ccccc3c(O)c1C2=O (stereo not shown) | 44.7 |
| COc1cccc2c1C(=O)c1c(O)c3c(c(O)c1C2=O)C[C@@](O)(C(C)=O)C[C@@H]3O[C@H]1C[C@H](N)[C@H](O)[C@H](C)O1 [DNM, reference compound] | 0.0912 |
| COC(=O)C1CC2=C(C(=O)c3c(cc4ccccc4c3O)C2=O)C(O[C@H]2C[C@H](NC(=O)C(F)(F)F)[C@H](O)[C@H](C)O2)O1 (mixture of isomers) | 0.977 |
| CCOC(=O)[C@@H]1CC2=C(C(=O)c3cc4ccccc4c(OC(C)=O)c3C2=O)[C@@H](O)O1 (mixture of isomers) | 0.977 |
| COC(=O)[C@@H]1CC2=C(C(=O)c3cc4ccccc4cc3C2=O)[C@@H](O[C@H]2C[C@H](NC(=O)C(F)(F)F)[C@H](O)[C@H](C)O2)O1 | 4.57 |
| CCOC(=O)C1CC2=C(CO1)C(=O)c1c(cc3ccccc3c1O)C2=O (stereo not shown) | 7.76 |
| CCOC(=O)[C@@H]1CC2=C(C(=O)c3cc4ccccc4c(O)c3C2=O)[C@@H](O[C@H]2C[C@H](NC(=O)C(F)(F)F)[C@H](O)[C@H](C)O2)O1 | 2.88 |

Then this compound:
[Q] Return reported GI50 for target or system NSC Lung, item `COC(=O)[C@H]1CC2=C(C(=O)c3cc4ccccc4cc3C2=O)[C@H](O[C@H]2C[C@H](NC(=O)C(F)(F)F)[C@H](O)[C@H](C)O2)O1` .
[A] 3.09

---

tested on: SKVLB; experiment: Microculture tetrazolium assay; assay type: cell-based; conditions: IC50 ratio SKVLB/SKOV3
readout kind: VLB/OV3

Examples from the recorded data:
| compound | readout kind | reported |
| --- | --- | --- |
| CC1(C2Cc3c(O)c4c(c(O)c3CO2)C(=O)c2ccccc2C4=O)OCCCO1 (stereo not shown) [BCH-1115] | VLB/OV3 | 1.24 |
| COC(=O)[C@@H]1CC2=C(C(=O)c3c(cc4ccccc4c3O)C2=O)[C@@H](O)O1 (relative stereo) [BCH-703] | VLB/OV3 | 0.75 |
| CC1(C2CC3=C(CO2)C(=O)c2c(cc4ccccc4c2O)C3=O)OCCCO1 (stereo not shown) [BCH-1108] | VLB/OV3 | 1.5 |

Then this compound:
[Q] Please indicate VLB/OV3 recorded for COC(=O)[C@@H]1CC2=C(C(=O)c3cc4ccccc4cc3C2=O)[C@@H](O[C@H]2C[C@H](NC(=O)C(F)(F)F)[C@H](O)[C@H](C)O2)O1 [BCH-671]
[A] 1.32
